Assay: in vitro
Conditions: rat, liver microsomes
Description: Half life in rat liver microsomes

TEST_SMILES | half-life
NC(=O)C1CCN(CCOc2ccc(C#Cc3ccc(-c4ccc(Cl)cc4)cn3)cc2)CC1 | 21 min

The reported measurements were obtained from ChEMBL document CHEMBL3600293.
